Reference source for all entries: PubChem BioAssay

Tested on: Lefty1
Assay: Lefty1 binders on small-molecule microarrays, primary screen, biochemical, small-molecule microarray, 635/667 nm fluorescence (AID 1139)
Conditions: small-molecule microarray binding, fluorescence 635/667; higher = more signal
Each entry falls in a class defined on composite z-score; the bands are lower (below 0.4), middle (0.4 to below 0.8), upper (0.8 or more)

[
  {
    "COMPOUND": "CCOC(=O)CCN1C(=O)[C@H]2[C@H]3[C@H](O)[C@H](O)CC(=NNC(=O)OCc4ccccc4)[C@H]3CC[C@H]2C1=O",
    "GROUP": "middle"
  },
  {
    "COMPOUND": "CCN1C(=O)[C@H]2[C@H]3[C@H](O)[C@H](O)CC(=NO[C@H](C)c4cn([C@@H]5COC[C@H]5O)nn4)[C@@H]3CC[C@H]2C1=O",
    "GROUP": "lower"
  },
  {
    "COMPOUND": "CCOC(=O)[C@H](CC(C)C)NC(=O)CCC1CC(OC(=O)NCCc2ccc(F)cc2)CC2(CCCC(COC(=O)NCCOC)O2)O1 (stereo partly drawn)",
    "GROUP": "upper"
  },
  {
    "COMPOUND": "CCOC(=O)NN=C1C[C@@H](O)[C@@H](O)[C@@H]2[C@@H]3C(=O)N(C[C@@H]4CCCO4)C(=O)[C@@H]3CC[C@H]12",
    "GROUP": "lower"
  },
  {
    "COMPOUND": "COC(=O)[C@H](C)NC(=O)CCC1CC(OC(=O)NCc2cccc3ccccc23)CC2(CCCC(COC(=O)NCCC(C)C)O2)O1 (stereo partly drawn)",
    "GROUP": "lower"
  },
  {
    "COMPOUND": "CCOC(=O)[C@H](Cc1ccccc1)NC(=O)CCC1CC(OC(=O)NCc2ccc3c(c2)OCO3)CC2(CCCC(COC(=O)NCCc3ccc(Cl)cc3)O2)O1 (stereo partly drawn)",
    "GROUP": "upper"
  },
  {
    "COMPOUND": "CC(C)CON=C1C[C@@H](O)[C@@H](O)[C@@H]2[C@@H]3C(=O)N([C@@H](C)c4ccccc4)C(=O)[C@@H]3CC[C@@H]12",
    "GROUP": "lower"
  },
  {
    "COMPOUND": "CCN1C(=O)[C@H]2[C@H]3[C@H](O)[C@H](O)CC(=NOC[C@@H](O)COCc4ccco4)[C@H]3CC[C@H]2C1=O",
    "GROUP": "upper"
  },
  {
    "COMPOUND": "CC(=O)OC[C@H]1O[C@H](CC=NOCC[C@@H]2C=C[C@H](OC(C)=O)[C@@H](COC(C)=O)O2)C=C[C@@H]1OC(C)=O",
    "GROUP": "upper"
  },
  {
    "COMPOUND": "C[C@]12CCC3c4ccc(OCC5CO5)cc4CCC3C1CC[C@@H]2O (stereo partly drawn)",
    "GROUP": "lower"
  },
  {
    "COMPOUND": "CC(=O)OC[C@H]1O[C@@H](ON=C(C)CCN2CCCCc3nc(C)c(C)cc32)[C@H](OC(C)=O)[C@@H](OC(C)=O)[C@@H]1OC(C)=O",
    "GROUP": "upper"
  },
  {
    "COMPOUND": "COC(=O)[C@H](C)NC(=O)CCC1CC(OC(=O)NCCc2ccc(F)cc2)CC2(CCCC(COC(=O)NCC3CCCCC3)O2)O1 (stereo partly drawn)",
    "GROUP": "middle"
  },
  {
    "COMPOUND": "C=C(C)C(=O)OC[C@H]1CN2[C@@H](CC[C@@H](C)[C@@H]2c2ccc(Br)cc2)C(=O)O1",
    "GROUP": "lower"
  },
  {
    "COMPOUND": "CCN1C(=O)[C@H]2[C@H]3[C@H](O)[C@H](O)CC(=NO[C@@H]4O[C@H](CO)[C@@H](O)[C@H](O)[C@H]4O)[C@H]3CC[C@H]2C1=O",
    "GROUP": "middle"
  },
  {
    "COMPOUND": "CC(C)=CCCC(C)=CCON=C1C[C@@H](O)[C@@H](O)[C@@H]2[C@@H]3C(=O)N(Cc4ccc5c(c4)OCO5)C(=O)[C@@H]3CC[C@@H]12",
    "GROUP": "middle"
  },
  {
    "COMPOUND": "O=C1[C@H]2[C@H]3[C@H](O)[C@H](O)CC(=NO[C@@H]4O[C@H](CO)[C@@H](O)[C@H](O)[C@H]4O)[C@H]3CC[C@H]2C(=O)N1C[C@@H]1CCCO1",
    "GROUP": "lower"
  },
  {
    "COMPOUND": "CC(=O)OC[C@H]1O[C@H](CCON=C(C)CCN2CCCc3nc(C)c(C)cc32)C=C[C@@H]1OC(C)=O",
    "GROUP": "upper"
  },
  {
    "COMPOUND": "CC1(C)O[C@H]2O[C@H]([C@H](O)CON=C3[C@H]4CCn5c(=O)n(-c6ccccc6)c(=O)n5[C@H]4[C@H](O)[C@@H]4O[C@H]34)[C@H](O)[C@H]2O1",
    "GROUP": "lower"
  },
  {
    "COMPOUND": "COCOc1ccc(Br)cc1C(=O)C=Cc1ccc2c(c1)OCO2",
    "GROUP": "middle"
  },
  {
    "COMPOUND": "COC(=O)C1=C(C)N(Cc2ccccc2)C2=C3C(=O)OCC[C@@H]3[C@@](O)(C(=O)OC)C(=O)N2[C@@H]1c1ccccc1",
    "GROUP": "upper"
  },
  {
    "COMPOUND": "CCOC(=O)[C@H](Cc1ccccc1)NC(=O)CCC1CC(OC(=O)NCc2ccc3c(c2)OCO3)CC2(CCCC(COC(=O)NCCOc3ccccc3)O2)O1 (stereo partly drawn)",
    "GROUP": "upper"
  },
  {
    "COMPOUND": "C#CCCCON=C1C[C@@H](O)[C@@H](O)[C@@H]2[C@@H]3C(=O)N(C4CCCCC4)C(=O)[C@@H]3CC[C@@H]12",
    "GROUP": "lower"
  },
  {
    "COMPOUND": "CO[C@H]1COC(=O)[C@H](C)COC(=O)[C@@H](OCc2ccccc2)C=C[C@@H]1C",
    "GROUP": "middle"
  },
  {
    "COMPOUND": "CC[C@@H](c1ccccc1)n1c(=O)n2n(c1=O)[C@H]1[C@H](O)[C@@H]3O[C@@H]3C(=NOCc3ccccc3)[C@H]1CC2",
    "GROUP": "middle"
  }
]
